B1: Nuclear receptor subfamily 4 group A member 2, residues 260 to 336; numbered along this chain, P43354 (parent)
chain: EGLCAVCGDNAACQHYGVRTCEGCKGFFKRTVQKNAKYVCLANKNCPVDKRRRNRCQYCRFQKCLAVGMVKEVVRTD

variants of: B1; experiment: abundance fitness (aPCA) (normalised: wild type 0, dead -1); higher = more abundant; growth selection in yeast, the domain comes from the species named; conditions: Homo sapiens
Threshold check on abundance fitness: at or above -0.2 gives true, strictly below gives false.

Consider the worked cases shown below.
In [3]: df
Out[3]:
                                      chain  qualitative_label
0  EGLCAVCGDNAACQHYGVRTCEGCKGFFKRTVQKNAKYVCLANKNCPVDKRRRNRCQYCIFQKCLAVGMVKEVVRTD              false
1  EGLCAVCGDNAAEQHYGVRTCEGCKGFFKRTVQKNAKYVCLANKNCPVDKRRRNRCQYCRFQKCLAVGMVKEVVRTD               true
2  EGLCAVCGDNAACQHYGVRTCYGCKGFFKRTVQKNAKYVCLANKNCPVDKRRRNRCQYCRFQKCLAVGMVKEVVRTD               true
3  EGLCAVCGDNAACQHYRVRTCEGCKGFFKRTVQKNAKYVCLANKNCPVDKRRRNRCQYCRFQKCLAVGMVKEVVRTD               true

Please find the next variant below.
Task item: Please indicate if the recorded abundance fitness for EGLCAVCGDNAACQHYGVRTCEGCKGFFKRTVQKNAKYVCLANKNCPVDKRRRNRCQDCRFQKCLAVGMVKEVVRTD meets or exceeds -0.2.
Reply: true
